Where do the numbers come from? From patent US7824866B2.

Entries and their pEC50 values follow.
Molecular target: human GPR72 (Homo sapiens)
Sequence (Q9NYM4 17-423): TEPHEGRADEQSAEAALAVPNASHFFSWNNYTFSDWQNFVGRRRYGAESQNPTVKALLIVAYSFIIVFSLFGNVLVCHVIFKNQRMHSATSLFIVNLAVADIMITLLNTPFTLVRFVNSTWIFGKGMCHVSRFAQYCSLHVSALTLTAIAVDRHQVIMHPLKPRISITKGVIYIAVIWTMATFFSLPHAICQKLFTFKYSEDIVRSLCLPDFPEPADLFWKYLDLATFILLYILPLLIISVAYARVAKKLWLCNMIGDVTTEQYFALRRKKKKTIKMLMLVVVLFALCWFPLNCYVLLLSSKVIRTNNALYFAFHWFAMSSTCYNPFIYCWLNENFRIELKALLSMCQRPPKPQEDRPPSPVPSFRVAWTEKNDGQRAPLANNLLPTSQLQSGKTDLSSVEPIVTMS
Assay: Aequorin-based functional assay: intracellular calcium release (luminescence) in CHO-K1 cells stably expressing human GPR72, mitochondrial apoaequorin and Galpha16
Format: cell-based
Parameters: expressed in transfected cells
pEC50: −log10 of the molar value.
PARAMETER MEASURED: pEC50

compound="CC/C=C\\C/C=C\\C/C=C\\CCCCCCCC(=O)O [Octadeca-9Z,12Z,15Z-trienoic acid]" parameter_measured=pEC50 observed=5.33
compound=CCCCC/C=C\C/C=C\C/C=C\C/C=C\CCCC(=O)NCC(=O)O parameter_measured=pEC50 observed=5.46
compound="CCCCC/C=C\\C/C=C\\C/C=C\\C/C=C\\CCCC(=O)O [Eicosa-5Z,8Z,11Z,14Z-tetraenoic acid]" parameter_measured=pEC50 observed=5.30
